Field: IC50. Provide a value for each of the molecules that follow.
Test system: A375
procedure-details: Cell growth IC50, screening of AOH1160 analogs
Type: cell-based
measurement-setup: Homo sapiens, A-375
Numeric answer only, unit nM assumed.

Lookup result for COc1cccc(Sc2ccccc2NC(=O)CNC(=O)c2cccc3ccccc23)c1 [AOH1996S] ; measured IC50: 170

Lookup result for O=C(CNC(=O)c1cccc2ccccc12)Nc1ccccc1Sc1ccc(F)cc1 [AOH1996S-4F] ; measured IC50: 350

----------
Field: IC50. Provide a value for each of the compounds that follow.
Tested on: SK-N-BE(2)c
procedure-details: Cell growth IC50, screening of AOH1160 analogs
Format: cell-based
measurement-setup: Homo sapiens
Numeric answer only, unit nM assumed.

Lookup result for "Cc1ccccc1Oc1ccccc1NC(=O)CNC(=O)c1cccc(C)c1C" ; measured IC50: 1030

Lookup result for "O=C(CNC(=O)c1cccc2ccccc12)Nc1ccccc1Oc1ccccc1" ; measured IC50: 325
